Form field: z-score (one value per entry).
assay: CREB reporter modulators under forskolin, primary screen, cell-based, PC12, CRE-LacZ reporter, forskolin-stimulated (AID 1146); settings: luminescence, 4.5 h, higher = more signal, called active from +8 up or from −8 down;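 also: PC12 cells with 6xCRE LacZ reporter stimulated by forskolin 10 µM; beta-galactosidase reporter signal reflecting CREB driven transcription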
Hey, just send me the number, nothing else.

In the examples that follow, each entry is paired with its recorded z-score.
compound	z-score
CCCC=C(CCC)[C@@H](NS(=O)(=O)c1ccc(-c2ccccc2)cc1)c1ccc(C(=O)OC)cc1	-0.289
C=C(COC)/C(=C/C[C@@H](OC(C)=O)c1cccc(OCCO)c1)c1cc(C(=O)OC)ccc1OC	-1.89
Cc1ccc(S[C@]2(C(=O)NC3CC3)CC(=O)N(Cc3cc(C(F)(F)F)cc(C(F)(F)F)c3)[C@@H]2c2ccc(CO)cc2)cc1	0.121
O=C(O)[C@@H]1Cc2c([nH]c3ccccc23)[C@@H](c2ccccc2)N1	-1.69
Cc1ccc(S[C@]2(C(=O)NCCCN(C)C)CC(=O)N(Cc3ccccc3)[C@@H]2c2ccc(CO)cc2I)cc1	2.84
CN1C(=O)C2C=CC(C(O)C3CC=CCC3)N(Nc3ccccc3)C2C1=O (centres undefined)	0.0874
CC1CC/C=C\[C@H]2OC34C=CCN(Cn5nnc6ccccc65)C(=O)[C@H]3N(C(C)CO)C(=O)[C@@H]4C2C(=O)O1 (some centres undefined)	-0.542
C=C(C(=O)CC[C@H](OC(=O)c1ccccc1-c1ccccc1C(=O)O)c1ccc(CO)o1)C(C)C	2.42
Cc1ccc(S[C@]2(C(=O)NCCN3CCOCC3)CC(=O)N(C3Cc4ccccc4C3)[C@@H]2c2ccc(CO)cc2I)cc1	0.174
CCCC[C@@H]1C[C@H]1[C@@H](NC(=O)c1cccs1)c1ccc(Cl)cc1	0.958

Here is another compound to look at.
## Task // returns reported z-score for input COC(=O)[C@@]1(Cc2ccc(OC)cc2)[C@H]2c3cc(C(=O)N(C)C)n(Cc4ccc(C)c(F)c4F)c3C[C@H]2CN1C(=O)c1ccccc1
## Result 1.24

----------
assay: small-molecule binders of probe aLefty1, primary screen, biochemical, small-molecule microarray, 635/667 nm fluorescence (AID 1153); conditions: higher = more signal;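 also: score merges spot fluorescence with signal-to-noise ratio from the scanned slide images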
Is composite z-score at least 0.1? Then Met. If not, Not met.

## Task Can C=CC[C@@]1(C(=O)NCC(O)CO)N=C(c2ccc(OCCCO)cc2)O[C@@H]1c1ccccc1CN=[N+]=[N-] (stereo partly drawn) be said to have composite z-score at or above 0.1?
## Result Met

## Task # check: composite z-score of O=C1c2ccccc2[C@@]2(Cc3ccccc3N(CC(F)(F)F)C2=O)[C@H](c2ccc(CO)cc2)N1C1CCCCC1 is greater than or equal to 0.1
## Result Not met

## Task composite z-score >= 0.1 for C=CC[C@]1(C(=O)O)N=C(c2ccc(OCCCO)cc2)O[C@H]1c1ccccc1N=[N+]=[N-] ?
## Result Not met

----------
target: Concanavalin-A (Canavalia ensiformis); experiment: ConA small-molecule binders, primary screen, artefact control for SMM control protein annotation, biochemical, small-molecule microarray, Alexa647 label, 635 nm (AID 1127); conditions: ConA-A647 binding fluorescence, higher = more signal;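 also: z combines 667 nm emission intensity with signal-to-noise across three replicate slides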
Attribute: composite z-score

Examples with their reported composite z-score follow.
molecule	composite z-score
Cc1ccc(N2C(=O)c3ccccc3[C@](C)(C(=O)O)[C@@H]2c2ccc(CO)cc2)nc1	-1.14
CN(C)CCCC[C@@H]1NC(=O)[C@@H]2C[C@H](C(=O)NCCCCCNC(=O)CS)[C@H](c3ccc(O)cc3)N2C1=O	1.15
COc1ccc(C(O)C2C=CC3C(=O)N(C)C(=O)C3N2N2CCCCC2)cc1OCc1ccccc1 (configuration not stated)	1.12
O=C1OCCC/C=C\[C@H]2OC34C=CCN(CCN5CCOCC5)C(=O)[C@H]3N(CCCCCO)C(=O)[C@@H]4C12 (some centres not stated)	-0.167
C[C@H]1COC(=O)[C@H](Cc2ccccc2)NC(=O)[C@@H](C)COC(=O)[C@H](Cc2ccccc2)NC1=O	0.892
COc1cc(CO)cc(I)c1O[C@H]1C=C(C(=O)NCCO)C[C@@H](N(CC2CCCCC2)C(=O)c2cc3ccccc3oc2=O)[C@@H]1O	0.358

Okay, next one:
## Task Returns the measured composite z-score for the input molecule. Input: CO[C@@H]1COC(=O)[C@H](C)NC(=O)CC=C[C@@H](C)[C@H](NS(=O)(=O)c2ccc(C)cc2)COC(=O)CC=C[C@@H]1C
## Result -0.809

----------
assay: basal RPMI8226 viability, no added stimulus, profiling panel, cell-based, calcein-AM fluorescence, 48 h, PK04 Diversity Set (AID 1166); details: RPMI8226 myeloma viability, higher = more signal;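 also: cells grown under basal conditions without added stimulus; test concentration not given here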
// reported z-score for each item listed
Give the figure by itself; no unit, no explanation.

Record excerpt, results attached:
compound	z-score
CO[C@H]1O[C@H](CO)[C@@H](OC(=O)Nc2ccc(Oc3ccccc3)cc2)[C@H](OC(=O)Nc2ccccc2-c2ccccc2)[C@H]1OC(=O)Nc1ccccc1-c1ccccc1	-4.01
COc1ccc([Si](C)(C)[C@H]2[C@H](CCO)O[C@@]3(C(=O)N(Cc4ccc(N5CCCCC5=O)cc4)c4ccccc43)[C@@H]2C)cc1	-0.628
[N-]=[N+]=NCc1ccccc1C[C@]1(C(N)=O)N=C(c2ccc(OCCCO)cc2)O[C@H]1c1ccccc1CN=[N+]=[N-]	-3.71
O=C1O[C@H](c2ccccc2)[C@H](c2ccccc2)N2[C@H]1[C@@H](C(=O)NC[C@H](O)c1ccccc1)[C@]1(C(=O)Nc3ccc(C#CC4(O)CCCCCC4)cc31)[C@H]2c1ccc(OCCO)cc1	-0.587
C=CCN(C(=O)C1N(c2ccc(CCO)cc2)C(=O)C2C(C(=O)O)C3C=CC21O3)C(C)(C)C (configuration not stated)	-0.265

## Task Give its z-score value. Item: CCN1C(C)=C(C(=O)OC)[C@@H](c2ccccc2)N2C(=O)[C@@]3(C(=O)OC)O[C@@]12[C@@H]1C(=O)CCC[C@@H]13
## Result 0.476

## Task I'd like to know its z-score. The compound in question is CCCC/C=C/[C@H]([C@@H](O)Cc1ccccc1)N(CC#Cc1ccccc1)Cc1ccccc1Br
## Result 0.0649

----------
test system: Sam68 (KHDRBS1); experiment: Sam68 small-molecule binders, primary screen, biochemical, small-molecule microarray, 635 nm fluorescence (AID 1125); conditions: small-molecule microarray binding, higher = more signal;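 also: score merges 667 nm channel intensity with signal to noise over triplicate slides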
Decision: composite z-score >= 0.7 yields 1, all other cases yield 0.

Worked cases, answers included:
molecule	class label
CC(C)(C)OC(=O)CC[C@]1(C(=O)N2CCCCC2)N=C(c2ccc(OCCCO)cc2)O[C@H]1c1ccccc1	1
C=CCN1C(=O)[C@@]2(Cc3ccccc3)N=C(c3ccc(OCCCO)cc3)O[C@H]2c2ccccc21	1
CC(C)CNC(=O)[C@@]1(C)c2ccccc2C(=O)N(Cc2ccc(OC(F)(F)F)cc2)[C@H]1c1ccc(CO)cc1	0
C=CCC(OC(C)=O)[C@@H]1[C@@H](N(Cc2cc3ccccc3o2)C(=O)c2ccc(C)cc2)c2cc(OCCCO)ccc2N1C(=O)c1ccc2ccccc2n1 (some centres undefined)	0
CCc1cccc(NC(=O)O[C@H]2[C@H](OC(=O)Nc3ccccc3)[C@@H](OC(=O)Nc3ccccc3)[C@@H](OC)O[C@@H]2CO)c1	1
CCCC=C(CCC)[C@@H](NC(=O)c1ccc(C(F)(F)F)cc1)c1ccccc1	1
COCCOC(=O)N1C(=O)[C@@]2(c3cc(C#CC4=CCCCC4)ccc31)[C@H](c1ccc(O)cc1)N1[C@H](c3ccccc3)[C@H](c3ccccc3)OC(=O)[C@H]1[C@@H]2C(=O)N1CCCCCCC1	1
CCCC[C@@H]1C[C@H]1[C@@H](NC(=O)c1ccccc1)c1ccccc1C(F)(F)F	1
CCC(=O)[C@]12O[C@@]3([C@@H]4C(=O)OCC[C@@H]41)N(CC)C(C)=C(C(=O)OC)[C@@H](c1ccccc1)N3C2=O	0
C=CCC(OC(C)=O)[C@@H]1[C@@H](N(Cc2ccc(-c3ccccc3)cc2)C(=O)c2ccc(C)cc2)c2cc(OCCCO)ccc2N1C(=O)c1ccc(-c2ccccc2)cc1 (some centres undefined)	0

## Task Identify whether the reported composite z-score of the following molecule is 0.7 or greater: C=CCN1C(=O)[C@]2(O[C@H](CCn3cc(CCO)nn3)[C@@H]([Si](C)(C)c3ccc(OC)cc3)[C@@H]2C)c2cc(NC(=O)c3ccc(OC)cc3)ccc21
## Result 1

## Task Decide: composite z-score of CCCN1C(=O)[C@@]2(CCS(=O)(=O)c3ccccc3)N=C(c3ccc(OCCCO)cc3)O[C@H]2c2ccccc21 >= 0.7?
## Result 1

----------
test system: Noggin (protein binding on small-molecule microarray); experiment: Noggin binders on small-molecule microarray, primary screen, biochemical, 635/667 nm fluorescence (AID 1095); conditions: 635 nm fluorescence, higher = more signal;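 also: score merges 667 nm feature fluorescence with signal to noise over triplicate slides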
Tick condition met if composite z-score is 0.05 or greater. Tick condition not met if composite z-score is less than 0.05.

compound	class label
C[C@]1(C(=O)NCc2ccccc2)c2ccccc2C(=O)N(Cc2cc(C(F)(F)F)cc(C(F)(F)F)c2)[C@H]1c1ccc(CO)cc1	condition met
CC(C)(C)OC(=O)CC[C@@]1(C(=O)NCc2ccccc2)N=C(c2ccc(OCCCO)cc2)O[C@@H]1c1ccccc1	condition not met
COC(=O)Cn1c(C(=O)N2CCCC2)cc2c1C[C@H]1CN(C(=O)c3ccccc3)[C@@](Cc3ccccc3)(C(=O)OC)[C@@H]21	condition not met
C=CCNC(=O)[C@H]1[C@@H]2C(=O)O[C@@H](c3ccccc3)[C@@H](c3ccccc3)N2[C@@H](c2ccc(O)cc2)[C@]12C(=O)Nc1ccc(C#CCNC(N)=O)cc12	condition not met
C=CC[C@]1(C(=O)NCC(O)CO)N=C(c2ccc(OCCCO)cc2)O[C@H]1c1ccccc1 (some centres not stated)	condition not met

Now let's try a different one.
## Task // inclusive: composite z-score at least 0.05? input: [N-]=[N+]=NCc1ccccc1[C@H]1OC(c2ccc(OCCCO)cc2)=N[C@@]1(Cc1ccccc1N=[N+]=[N-])C(=O)NCc1ccccc1
## Result condition met

Where do these numbers come from? They come from PubChem BioAssay.
